# System: neonate larvae of H. virescens
# experimentNotes: Time-response of neonate larvae to NPVs with low concentrations of classical insecticides (droplet feeding, treated vials)
# Type: in vivo, Heliothis virescens
# conditionSet: 2000 PIBs and/or LC10-LC20 (24 h) insecticide
Note to self: values exactly at 100 h are class 1. So Actual Kill Time (LT50, h) at or above 100 h is class 1, below is class 0.

Solved cases below.
• O=S1OCC2C(CO1)C1(Cl)C(Cl)=C(Cl)C2(Cl)C1(Cl)Cl (stereo not drawn) [Endosulfan] = class 0
• C=CCC1=C(C)C(OC(=O)C2C(C=C(C)C)C2(C)C)CC1=O (stereo not drawn) [Allethrin] = class 1
• CNC(=O)ON=C(C)SC [Methomyl] = class 1
• Clc1ccc(C(c2ccc(Cl)cc2)C(Cl)(Cl)Cl)cc1 [DDT] = class 0
• CCCSP(=O)(OCC)Oc1ccc(Br)cc1Cl (stereo not drawn) [Profenofos] = class 1

Query block: Tell me whether Actual Kill Time (LT50, h) is at least 100 h here: CC1(C)C(C=C(Cl)Cl)C1C(=O)OC(C#N)c1cccc(Oc2ccccc2)c1 (stereo not drawn) [Cypermethrin]
Result block: class 1
